Values compiled from ChEMBL document CHEMBL5303304.

System: Fibroblast
PROTOCOL_DESCRIPTION: Incucyte cell viability with human fibroblast; further: unitless GR value; below 1 slowed growth and below 0 cell loss
Format: toxicity, cell-based
PROTOCOL_CONDITIONS: 18 h, 10 µM, compound concentration 10 uM, replicate number 1
Lab note: cut-off is 0.8. Strictly less in Growth Rate is class 1. Exactly 0.8 or more is class 0.

Cl.O=C(NCCN1CCC2(CC1)C(=O)NCN2c1cccc(F)c1)c1ccc2ccccc2c1
class 1
CCC(C(=O)Nc1ccc(-c2cc3ccccc3s2)c(C(N)=O)c1)c1nccs1 (stereo not given)
class 0
CN(C)Cc1cccc(NC(=C2C(=O)Nc3cc(C(=O)N(C)C)ccc32)c2ccccc2)c1
class 1

Q: Is Growth Rate of O=C(Nc1cccc(Nc2nccc(Nc3cccc(C(F)(F)F)c3)n2)c1)C1CC1 [ANILINOPYRIMIDINE1] strictly below 0.8?
Ans: class 1

Q: And for CC(=O)Oc1ccc2c(c1)[C@@]1(C)CCC[C@](C)(C(=O)OC(=O)[C@@]3(C)CCC[C@]4(C)c5cc(OC(C)=O)ccc5CC[C@@H]34)[C@@H]1CC2 [ACETYL PODOCARPIC ACID ANHYDRIDE] ?
Ans: class 0

----------
Could you please report measured Growth Rate for the items listed next?
System: HEK-293T
PROTOCOL_DESCRIPTION: Incucyte cell viability with HEK293T; further: unitless GR value; below 1 slowed growth and below 0 cell loss
Type: toxicity, cell-based
PROTOCOL_CONDITIONS: human, 0 h, 10 µM, compound concentration 10 uM, replicate number 1
Answers are plain numbers.

O=C(Nc1ccccc1C(=O)O)c1cc(S(=O)(=O)c2ccccc2)ccc1Cl
-0.5
NCc1ccc(OCCCc2sc(-c3ccc4c(c3)/C(=N/Nc3nc5ccccc5s3)CCC4)nc2C(=O)O)cc1
0.54
O=C(O)c1cc(-c2ccccc2)ccc1O
-0.37
CNC(=O)c1cc(C(=O)NC2CC2)cn(Cc2ccccc2)c1=O
-0.72
CN1CCc2cc(Nc3ncc(C(F)(F)F)c(NCc4cc[nH]n4)n3)ccc2C1
-0.94

Go through the items and report each one's Growth Rate.
1. COc1cc(OC)c(NC(=O)Nc2cc(C)on2)cc1Cl
2. CCNC1=N[C@@H]2[C@@H](O)[C@H](O)[C@@H](CO)O[C@@H]2S1
3. O=C(Cc1ccccc1)Nc1nnc(N2C[C@H]3C[C@@H]2CN3c2cccnn2)s1
4. CCO[C@@H](Cc1ccc(OCCc2ccc(OS(C)(=O)=O)cc2)cc1)C(=O)O
5. CN1CC[C@@]23CCCC[C@@H]2[C@@H]1Cc1ccc(O)cc13.O=C(O)C(O)C(O)C(=O)O

Ans:
1: 0.72; 2: -0.01; 3: 0.58; 4: 0.24; 5: 0.54

----------
Tested on: U2OS
PROTOCOL_DESCRIPTION: Incucyte cell viability with U2OS; further: unitless GR value; below 1 slowed growth and below 0 cell loss
Type: toxicity, cell-based
PROTOCOL_CONDITIONS: human, 18 h, 10 µM, compound concentration 10 uM, replicate number 1
Lab note: cut-off is 0.9. Strictly less in Growth Rate is Yes. Exactly 0.9 or more is No.

# example entries with known answers
CCN1CCN(Cc2ccc(Nc3ncc(F)c(-c4cc(F)c5nc(C)n(C(C)C)c5c4)n3)nc2)CC1 [ABEMACICLIB]
Yes
CCOCCn1cc(C(=O)Nc2ccc(-n3nc(-c4cccnc4)cc3C(F)(F)F)cn2)ccc1=O [BI 1935]
Yes
O=S1(=O)NCN(C2CC2)c2ccc(F)cc21
No

Consider the additional compound presented here.
Q: Is Growth Rate of O=C1CSC(=O)N1C(CCc1ccncc1)COc1ccc(-c2cccc([N+](=O)[O-])c2)cc1 (stereo not drawn) strictly below 0.9?
Ans: Yes

----------
Could you please report measured Growth Rate for the items listed next?
System: Fibroblast
PROTOCOL_DESCRIPTION: Incucyte cell viability with human fibroblast; further: unitless GR value; below 1 slowed growth and below 0 cell loss
Format: toxicity, cell-based
PROTOCOL_CONDITIONS: 18 h, 10 µM, compound concentration 10 uM, replicate number 2
Answers are plain numbers.

# annotated cases, reported Growth Rate shown
COc1ccc(CSc2nnc(-c3ccc4ncsc4c3)o2)cc1C(F)(F)F
0.71
CCOC(=O)c1ccc(CN(Cc2ccc(-c3cccc(S(C)(=O)=O)c3)cc2)S(=O)(=O)c2c(C)cc(C)cc2C)o1
0.84
CCCCCNC(=O)N1CCC(CN(Cc2ccc(Cl)cc2)Cc2ccc([N+](=O)[O-])s2)C1 (stereo not given) [SR9011]
0.66
Nc1ncnc2c1c(I)cn2[C@@H]1O[C@H](CO)[C@@H](O)[C@H]1O [IODOTUBERCIDIN]
0.43

Turning to the following molecule.
Q: GET /values?readout=Growth Rate&system=Fibroblast&item= CCCCC[C@@](C)(O)/C=C/[C@H]1C(=O)CC(O)C1C/C=C\CCCC(=O)O (stereo not given in full)
Ans: 0.57

----------
Tested on: U2OS
PROTOCOL_DESCRIPTION: Incucyte cell viability with U2OS; further: unitless GR value; below 1 slowed growth and below 0 cell loss
Type: toxicity, cell-based
PROTOCOL_CONDITIONS: human, 0 h, 10 µM, compound concentration 10 uM, replicate number 1
Lab note: cut-off is 0.5. Strictly less in Growth Rate is Met. Exactly 0.5 or more is Not met.

COc1ccc(N(C(=O)Nc2c(C)cccc2C)c2cc(Nc3ccc(N4CCN(C)CC4)cc3)ncn2)c(OC)c1
Not met

Q: Is Growth Rate of `C=C1/C(=C\C=C2/CCC[C@]3(C)[C@@H]([C@H](C)CCCC(C)(C)O)CC[C@@H]23)C[C@@H](O)C[C@@H]1O` strictly below 0.5?
Ans: Met

Q: And for `CCOC(=O)CS(=O)(=O)c1ccc([C@@H](CO)NC(=O)c2cc3c(Cl)c(Cl)c(C)cc3n2C)cc1` ?
Ans: Met

Q: And for `Cc1cnc(Nc2ccc(C(=O)N3CCN(C)CC3)cc2)nc1N[C@@H]1CCC[C@@H]1C(N)=O` ?
Ans: Not met

----------
Test system: Fibroblast
PROTOCOL_DESCRIPTION: Incucyte cell viability with human fibroblast; further: unitless GR value; below 1 slowed growth and below 0 cell loss
Assay type: toxicity, cell-based
PROTOCOL_CONDITIONS: 12 h, 10 µM, compound concentration 10 uM, replicate number 2
ASSAY_READOUT: Growth Rate
One number for each entry.

# annotated cases, reported Growth Rate shown
CCNC1=N[C@@H]2[C@@H](O)[C@H](O)[C@@H](CO)O[C@@H]2S1
0.76
CCN(c1ccccc1)c1cc(NC)[n+](C)c(C)n1.[Cl-]
0.8
Nc1ncnc2[nH]c(-c3ccccc3)nc12
0.9
Cc1cc(=O)oc2cc(NC(=O)[C@H](Cc3ccc(I)cc3)NC(=O)[C@H]3N[C@@H]4CC[C@H]3C4)ccc12.O=C(O)C(F)(F)F
0.19
CN1CCN(c2ccnc(NCCc3ccccc3)n2)CC1 [TP-040n]
0.9

Turning to the following compound.
Q: Endpoint output: Growth Rate of `CC(=O)Nc1nc2c(Oc3cc(-c4ccc(C(F)(F)F)cc4)ncn3)cccc2s1` . Value?
Ans: 0.8

----------
Could you please report measured Growth Rate for the items listed next?
Test system: HEK-293T
PROTOCOL_DESCRIPTION: Incucyte cell viability with HEK293T; further: unitless GR value; below 1 slowed growth and below 0 cell loss
Assay type: toxicity, cell-based
PROTOCOL_CONDITIONS: human, 0 h, 10 µM, compound concentration 10 uM, replicate number 1
Give bare numbers.

# annotated cases, reported Growth Rate shown
Cn1c(SCc2ccc(C(C)(C)C)cc2)nc(N)cc1=O
0.71
Cc1nn(-c2ccccc2)c(Nc2ccccc2C(=O)O)c1-c1cc2nccnc2c(F)c1F
0.45
C[C@H](CCC(=O)[O-])[C@H]1CC[C@H]2[C@@H]3[C@@H](O)C[C@@H]4C[C@H](O)CC[C@]4(C)[C@H]3CC[C@]12C.[Na+]
0.59
COc1cnccc1Nc1nc(-c2nn(Cc3c(F)cc(OCCO)cc3F)c3ccccc23)ncc1OC
-1
CC(C)(c1ccc(OCc2cccc(COc3ccc(C(=N)N)cc3)c2)cc1)c1ccc(O[C@@H]2O[C@H](C(=O)O)[C@@H](O)[C@H](O)[C@H]2O)cc1.O=C(O)C(F)(F)F
0.51

Go through the items and report each one's Growth Rate.
1. COc1ccc(Cl)cc1[C@]1(F)C(=O)Nc2cc(C(F)(F)F)ccc21
2. Cc1[nH]nc2ccc(-c3cncc(OCC(N)Cc4c[nH]c5ccccc45)c3)cc12 (stereo not drawn)
3. C=C[C@@]12CCc3cc(O)ccc3[C@H]1CC[C@@]1(C)[C@H]2CC[C@@H]1O
4. O=C(O)c1ccc(S(=O)(=O)N(Cc2ccc(OC(F)(F)F)cc2)c2ncc(C(F)(F)F)cc2Cl)cc1
5. Cn1cnc(Cn2ccc3ccc(CNCc4[nH]c5ccccc5c4[C@@H]4NC(=O)c5ccc(O)cc54)cc32)c1
6. CCCCCCCCCCCCCC(=O)O[C@@H]1[C@@H](C)[C@@]2(O)[C@@H](C=C(CO)C[C@]3(O)C(=O)C(C)=C[C@@H]23)[C@@H]2C(C)(C)[C@]12OC(C)=O [PHORBOL MYRISTATE ACETATE]

Ans:
0.73
-0.53
0.4
0.66
0.61
0.64

Go through the items and report each one's Growth Rate.
1. CCC(C)(C)CC[C@H](NC(=O)N1CCOCC1)C(=O)NC1(C#N)CCN(C)CC1
2. CCc1ccc(-c2ncn(CC3(F)CCN(C)CC3)c2-c2ccnc3[nH]ccc23)nc1

Ans:
1: 0.93; 2: -0.12
